- TEST DETAILS: FRG1 promoter luciferase signal modulators, primary screen, FRG1 inhibition for FSHD, cell-based, C2C12 myotubes, firefly/Renilla luciferase, luminescence (AID 1084)
- RECORDED CONDITIONS: higher = more signal, called active from +8 up or from −8 down
The source made the active and inactive calls.
Kindly state z-score for each of the entries shown.

CCCC[C@@H](O)C1=C(C)C[C@H]2C(=O)N(C)C(=O)[C@H]2[C@H]1CO -0.645 (inactive)

For each of the items listed, what is its z-score?
1. C=CCNC(=O)[C@@H]1[C@H]2C(=O)O[C@H](c3ccccc3)[C@H](c3ccccc3)N2[C@H](c2ccc(O)cc2)[C@@]12C(=O)N(C(=O)OCCOC)c1ccc(C#Cc3ccc(OC)cc3)cc12
2. COc1ccc([Si](C)(C)[C@H]2[C@H](CC(=O)N(CCO)Cc3ccccc3)O[C@@]3(C(=O)N(Cc4ccc(N5CCC5=O)cc4)c4ccccc43)[C@@H]2C)cc1

### Response
1: -0.374 (inactive); 2: -2.75 (inactive)

### Prompt Would you mind telling me what z-score value was observed for `C=CCN1C(=O)[C@@]2(O[C@@H](CCn3cc(CCO)nn3)[C@H]([Si](C)(C)c3ccc(OC)cc3)[C@H]2C)c2cc(N3C(=O)c4cccc5cccc3c45)ccc21` ?
### Response -2.79 (inactive)

* * *

- System: PRMT1 (protein arginine N-methyltransferase 1)
- TEST DETAILS: PRMT1 binders on small-molecule microarrays, primary screen, biochemical, small-molecule microarray, 635 nm fluorescence (AID 1088);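 note: binding of Prmt1 protein to compounds spotted on small-molecule microarray slides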
- RECORDED CONDITIONS: small-molecule microarray binding, higher = more signal
Could you label it fulfilled if measured composite z-score is 0.6 or higher, and not fulfilled otherwise?

Below are worked cases with known answers.
COMPOUND	CLASSIFICATION
COc1ccc([Si](C)(C)[C@H]2[C@H](CC(=O)N(CCO)Cc3ccccc3)O[C@@]3(C(=O)N(Cc4cccc(N5C(=O)COc6ccccc65)c4)c4ccccc43)[C@@H]2C)cc1	fulfilled
Cc1ccc(N2C(=O)c3ccccc3[C@](C)(C(=O)NCC(F)(F)F)[C@@H]2c2ccc(CO)cc2)nc1	not fulfilled
C=CCNC(=O)[C@@H]1[C@H]2C(=O)O[C@H](c3ccccc3)[C@H](c3ccccc3)N2[C@H](c2ccc(O)cc2)[C@@]12C(=O)N(C(=O)OCCOC)c1ccc(C#Cc3ccc(OC)cc3)cc12	fulfilled
CC1CC/C=C\[C@H]2OC34C=CCN(C(C)C)C(=O)[C@H]3N(C(CO)C(C)C)C(=O)[C@@H]4C2C(=O)O1 (some centres undefined)	not fulfilled

### Prompt Please tell me: is the compound `CC(C)C(=C=CC[C@@H](O)c1ccc(CO)o1)CCO` at or over 0.6 in terms of composite z-score?
### Response fulfilled

### Prompt Thanks! And C=CCC(OC(C)=O)[C@@H]1[C@@H](N(Cc2ccc(-c3cccc(C(F)(F)F)c3)o2)C(=O)c2ccc(-c3ccccc3)cc2)c2cc(OCCCO)ccc2N1C(=O)Cc1ccc(OC)cc1 (some centres undefined) ?
### Response not fulfilled

### Prompt Would you mind doing `CCOC(=O)C[C@H]1[C@H](OC(=O)c2ccc(-c3ccccc3)cc2)[C@@H](NC(=O)c2ccccc2)c2cc(OCCCO)ccc2N1C(=O)c1ccccc1` as well?
### Response fulfilled

### Prompt Please do the same for `COc1ccc(C#Cc2ccc3c(c2)[C@]2(C(=O)N3)[C@H](c3ccc(O)cc3)N3[C@H](c4ccccc4)[C@H](c4ccccc4)OC(=O)[C@H]3[C@@H]2C(N)=O)cc1` as well.
### Response fulfilled

* * *

- TEST DETAILS: binders of probe aFST on microarray, primary screen, stem cell growth factor project, biochemical, small-molecule microarray, fluorescence 635/667 (AID 1086);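 note: score merges 667 nm fluorescence with signal-to-noise of each printed compound spot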
- RECORDED CONDITIONS: higher = more signal
METRIC: composite z-score

COc1ccc([Si](C)(C)[C@@H]2[C@@H](CCn3cc([C@H](O)c4ccccc4)nn3)O[C@]3(C(=O)N(C)c4c(Br)cc(C)cc43)[C@H]2C)cc1 -0.43
CC(C)CNC(=O)[C@@H]1c2ccccc2C(=O)N(Cc2ccc(OC(F)(F)F)cc2)[C@H]1c1ccc(CO)cc1 0.941
O=C(O)[C@H]1C[C@H]2C(=O)N[C@@H](Cc3ccccc3)C(=O)N2[C@H]1c1ccc(O)cc1 0.16
COc1ccc(C(=O)Nc2cccc(CN3C(=O)[C@@]4(O[C@@H](CCO)[C@H]([Si](C)(C)c5ccc(OC)cc5)[C@H]4C)c4ccccc43)c2)cc1 0.0018
CC(C)(C)OC(=O)CC[C@@]1(C(=O)N2CCOCC2)N=C(c2ccc(OCCCO)cc2)O[C@@H]1c1ccccc1 0.517

As a next step, examine the compound that follows.
### Prompt Fill in: composite z-score of `COC(=O)c1c(CC[C@@H](CO)NC(=O)Nc2ccc(OC)cc2)oc(C(=O)Cc2ccccc2)c1C(=O)OC` is ___
### Response -0.0409

* * *

- ASSAYED SYSTEM: Concanavalin-A (Canavalia ensiformis)
- TEST DETAILS: ConA small-molecule binders, primary screen, artefact control for SMM control protein annotation, biochemical, small-molecule microarray, Alexa647 label, 635 nm (AID 1127);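 note: z combines 667 nm emission intensity with signal-to-noise across three replicate slides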
- RECORDED CONDITIONS: ConA-A647 binding fluorescence, higher = more signal
METRIC: composite z-score
Answers are plain numbers.

Example cases with answers are listed next.
C=C(/C(=C/C[C@H](OC(=O)c1ccncc1)c1cccc(OCCO)c1)c1cc(C(=O)OC)ccc1OC)C(C)C 0.505
C=CCN1C(=O)[C@@]2(O[C@@H](CCO)[C@H]([Si](C)(C)c3ccc(OC)cc3)[C@H]2C)c2cc(N3C(=O)c4cccc5cccc3c45)ccc21 1.06

With those in mind, consider the next compound.
### Prompt I am curious: what composite z-score value has been reported for `CN(C)CCCC[C@@H]1NC(=O)[C@@H]2C[C@H](C(=O)NCCCCCNC(=O)CS)[C@H](c3cccc(OCCO)c3)N2C1=O` ?
### Response 0.65

* * *

- Tested on: Inhibin beta A chain (activin A)
- TEST DETAILS: INHBA (activin A) binders on microarrays, primary screen, biochemical, small-molecule microarray, 635 nm fluorescence scan (AID 1107);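 note: mouse activin A protein probed at 4.33 µg/mL on printed slides; score merges bound-protein fluorescence near 667 nm with spot signal-to-noise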
- RECORDED CONDITIONS: small-molecule microarray binding, higher = more signal
Threshold check on composite z-score: at or above 0.6 gives 1 (yes), strictly below gives 0 (no).

Examples from the recorded data:
MOLECULE	CLASSIFICATION
CCCCCN1CC=CC23O[C@@H]4/C=C\CCC(C)OC(=O)C4[C@H]2C(=O)N(CCO)[C@@H]3C1=O (stereo not given in full)	1 (yes)
CCCCCCC#C[Si](O[C@H](c1ccccc1)c1cn(Cc2ccccc2)nn1)(C(C)C)C(C)C	0 (no)
C=C(/C(=C/C[C@H](OC(C)=O)c1cccc(OCCO)c1)c1cc(C(=O)OC)ccc1OC)C(C)C	0 (no)

### Prompt Textbook exercise: given the entry `COCCOC(=O)N1C(=O)[C@@]2(c3ccccc31)[C@H](C(=O)Nc1nc3ccccc3s1)[C@H]1C(=O)O[C@H](c3ccccc3)[C@H](c3ccccc3)N1[C@@H]2c1ccc(O)cc1` , state whether its composite z-score is greater than or equal to 0.6.
### Response 1 (yes)

### Prompt How about this molecule: CC(C)CCC[C@@H](C)[C@H]1CC[C@@]2(C)C3=C(CC[C@]12C)[C@@]1(C)CC[C@H](OC(=O)CCl)C(C)(C)C1CC3 (stereo not given in full)
### Response 0 (no)

### Prompt What do you have for `COc1ccc([Si](C)(C)[C@H]2[C@H](CC(=O)N(CCO)Cc3ccccc3)O[C@@]3(C(=O)N(Cc4ccc(N5CCC5=O)cc4)c4ccccc43)[C@@H]2C)cc1` ?
### Response 0 (no)

### Prompt // query: `O=C(NCc1ccccc1)[C@@H]1c2ccccc2C(=O)N(Cc2ccccc2Cl)[C@H]1c1ccc(CO)cc1`
### Response 1 (yes)

### Prompt Quick one: `COCCCN1C(=O)[C@@]2(Cc3ccccc31)c1ccccc1C(=O)N(Cc1ccccc1Cl)[C@H]2c1ccc(CO)cc1`
### Response 1 (yes)

### Prompt Continue with `C=C(COC)/C(=C/C[C@H](OC(C)=O)c1ccc(CO)o1)c1cnc2ccccc2c1`
### Response 1 (yes)

### Prompt # iterate: `C[N+](C)(C)CCCCNC(=O)[C@@H]1C[C@@H]2C(=O)NCC(=O)N2[C@@H]1c1cccc(OCCO)c1`
### Response 0 (no)

### Prompt Item: `CC(=O)NCCCC[C@@H]1NC(=O)[C@@H]2C[C@H](C(=O)O)[C@H](c3cccc(OCCO)c3)N2C1=O`
### Response 0 (no)

* * *

- ASSAYED SYSTEM: Alpha-bungarotoxin (Bungarus multicinctus) (UniProt P60615)
- Sequence (P60615 whole entry, looked up): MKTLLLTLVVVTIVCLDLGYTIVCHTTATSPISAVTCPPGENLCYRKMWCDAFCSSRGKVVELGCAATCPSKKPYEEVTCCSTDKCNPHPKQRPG
- TEST DETAILS: alpha-bungarotoxin binders on microarray, profiling panel, artefact control for SMM control protein annotation, biochemical, small-molecule microarray, Alexa647 label, 635/667 nm fluorescence (AID 1117)
- RECORDED CONDITIONS: alpha-BTX-A647 binding fluorescence, higher = more signal
METRIC: composite z-score
Numbers only.

Use the examples below as a reference point.
COMPOUND	MEASURED
O=c1n(-c2ccccc2)c(=O)n2n1CC(COc1ccccc1)=C1[C@@H](CCc3ccccc3)OB(O)C[C@@H]12	1.17
C=CCC1(CC=C)C[C@H]2CO[C@H](c3ccc(OC)cc3)N2C1=O	0.278
C[N+](C)(C)CCCC[C@@H]1NC(=O)[C@@H]2C[C@H](C(=O)NCCCCCNC(=O)CS)[C@H](c3ccc(O)cc3)N2C1=O	1.12
COCCOC(=O)N1C(=O)[C@@]2(c3cc(C#CCNC(N)=O)ccc31)[C@H](C(=O)NC[C@H](O)c1ccccc1)[C@H]1C(=O)O[C@H](c3ccccc3)[C@H](c3ccccc3)N1[C@@H]2c1ccc(O)cc1	1.04
C=CCNC(=O)[C@H]1[C@@H]2C(=O)O[C@@H](c3ccccc3)[C@@H](c3ccccc3)N2[C@@H](c2ccccc2OCCO)[C@]12C(=O)N(C(=O)OCCOC)c1ccc(C#CCCO)cc12	0.581

Would you mind listing composite z-score for each of the following compounds?
1. C=C(COC)/C(=C/C[C@H](OC(C)=O)c1cccc(OCCO)c1)c1cc(C(=O)OC)ccc1OC
2. C=CCC(OC(C)=O)[C@@H]1[C@@H](N(Cc2ccc(-c3ccccc3)cc2)C(=O)c2ccc(-c3ccccc3)cc2)c2cc(OCCCO)ccc2N1C(=O)c1ccc(-c2ccccc2)cc1 (stereo partly drawn)

### Response
1: -0.284; 2: 0.459

Items follow; give composite z-score for each.
1. CC(C)[C@@H](C(=O)O)n1cc(-c2ccccn2)nn1
2. C#CCN1C(C(=O)OCC)OC[C@H]1c1ccccc1 (stereo partly drawn)
3. O=C(O)[C@H]1C[C@H]2C(=O)NCC(=O)N2[C@H]1c1cccc(OCCO)c1

### Response
1. 0.703
2. 0.327
3. 1.81

Look at each compound and report its composite z-score.
1. NCCCCCCNC(=O)[C@@H]1C[C@@H]2C(=O)N[C@@H](Cc3ccccc3)C(=O)N2[C@@H]1c1ccc(O)cc1
2. COc1c(C)cc(-c2cc3c(c(CCc4ccccc4)n2)[Si](C(C)C)(C(C)C)OC3)cc1C
3. [N-]=[N+]=NCc1ccccc1C[C@]1(C(=O)NCc2ccccc2)N=C(c2ccc(OCCCO)cc2)O[C@H]1c1ccccc1

### Response
[1.3, -0.382, 1.22]

Hey, just so you know, these numbers are from PubChem BioAssay.
